tgt: Beta-secretase 1 (Homo sapiens, UniProt P56817)
Sequence (P56817 whole entry): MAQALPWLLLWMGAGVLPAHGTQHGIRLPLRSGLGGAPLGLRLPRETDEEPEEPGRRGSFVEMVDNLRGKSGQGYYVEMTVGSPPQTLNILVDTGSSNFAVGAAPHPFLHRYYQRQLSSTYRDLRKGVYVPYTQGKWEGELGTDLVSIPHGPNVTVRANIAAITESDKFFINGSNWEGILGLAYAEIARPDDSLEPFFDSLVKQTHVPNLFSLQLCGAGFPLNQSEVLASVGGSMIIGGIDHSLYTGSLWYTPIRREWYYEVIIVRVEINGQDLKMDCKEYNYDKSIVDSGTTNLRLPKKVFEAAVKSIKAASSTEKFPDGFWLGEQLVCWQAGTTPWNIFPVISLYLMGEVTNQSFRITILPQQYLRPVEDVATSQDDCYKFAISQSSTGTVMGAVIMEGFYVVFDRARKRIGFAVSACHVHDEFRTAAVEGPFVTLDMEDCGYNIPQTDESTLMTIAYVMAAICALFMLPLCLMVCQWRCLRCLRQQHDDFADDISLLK
protocol: Inhibition of BACE1 at 100 uM by FRET assay
Lab note: anything with inhibition at or over 40% counts as 1; the rest go in 0.

| compound | label |
| --- | --- |
| OC(CSc1ccccc1)CN1CCC(C(O)(c2ccccc2)c2ccccc2)CC1 (configuration not stated) | 0 |
| Cc1ccc(SCC(O)Cn2c3c(c4ccccc42)CCC3)cc1 (configuration not stated) | 1 |
| COc1ccc(SCC(O)CN(Cc2ccccc2)Cc2ccccc2)cc1 (configuration not stated) | 0 |
| Oc1ccc(SCC(O)COc2ccc(-c3ccccc3)cc2)cc1 (configuration not stated) | 0 |
| COc1ccc(SCC(O)CN2CCc3cc(OC)c(OC)cc3C2c2ccccc2)cc1 (configuration not stated) | 0 |
| OC(CSc1nnnn1-c1ccccc1)Cn1c2ccccc2c2ccccc21 (configuration not stated) | 1 |
| COc1cc2c(cc1OC)C(c1ccccc1)N(CC(O)CSc1nnnn1-c1ccccc1)CC2 (configuration not stated) | 1 |
| Cc1c(C)n(CC(O)CSc2ccccc2)c2ccccc12 (configuration not stated) | 1 |
| Cc1c(C)n(CC(O)CSc2ccc(O)cc2)c2ccccc12 (configuration not stated) | 1 |
| CCc1cccc2ccn(CC(O)CSc3ccc(OC)cc3OC)c12 (configuration not stated) | 1 |
| CCc1cccc2ccn(CC(O)CSc3ccccc3Cl)c12 (configuration not stated) | 1 |
| CCc1ccc(SCC(O)COc2ccc(Cc3ccccc3)cc2)cc1 (configuration not stated) | 1 |
| COc1ccc(SCC(O)COc2ccc(Cc3ccccc3)cc2)cc1 (configuration not stated) | 1 |
| OC(CSc1nnnn1-c1ccccc1)CN(Cc1ccccc1)Cc1ccccc1 (configuration not stated) | 0 |
| OC(CSc1ccc2ccccc2c1)CN1CCC(C(O)(c2ccccc2)c2ccccc2)CC1 (configuration not stated) | 0 |
| Oc1ccccc1SCC(O)Cn1ccc2ccccc21 (configuration not stated) | 0 |
| CCc1cccc2ccn(CC(O)CSc3nnnn3-c3ccccc3)c12 (configuration not stated) | 1 |
| OC(CSc1ccc(F)cc1)CN(Cc1ccccc1)Cc1ccccc1 (configuration not stated) | 0 |
| Cc1c(C)n(CC(O)CSc2nnnn2-c2ccccc2)c2ccccc12 (configuration not stated) | 1 |
| OC(CSc1ccc(F)cc1)Cn1ccc2ccccc21 (configuration not stated) | 1 |
| COc1cc2c(cc1OC)C(c1ccccc1)N(CC(O)CSc1ccc(C)cc1)CC2 (configuration not stated) | 0 |
| COc1ccc(SCC(O)Cn2c(-c3ccccc3)cc3ccccc32)c(OC)c1 (configuration not stated) | 1 |
| CCc1ccccc1SCC(O)COc1ccc(Cc2ccccc2)cc1 (configuration not stated) | 1 |
| OC(CSc1ccc2ccccc2c1)Cn1c2ccccc2c2ccccc21 (configuration not stated) | 1 |
| OC(CSc1ccccc1)Cn1c2c(c3ccccc31)CCC2 (configuration not stated) | 1 |
| COc1ccc(SCC(O)Cn2c(C)c(C)c3ccccc32)c(OC)c1 (configuration not stated) | 1 |
| OC(COc1ccc(-c2ccccc2)cc1)CSc1nnnn1-c1ccccc1 (configuration not stated) | 1 |

###

tgt: Beta-secretase 1 (Homo sapiens, UniProt P56817)
protocol: Inhibition of BACE1 at 100 uM by FRET assay
inhibition for assorted molecules

| molecule | inhibition |
| --- | --- |
| Cc1ccccc1SCC(O)Cn1c(-c2ccccc2)cc2ccccc21 (stereo unspecified) | 67% |
| OC(CSc1ccc(Cl)cc1)CN1CCCCCC1 (stereo unspecified) | 0% |
| Nc1cccc(SCC(O)Cn2c(-c3ccccc3)cc3ccccc32)c1 (stereo unspecified) | 73% |
| Cc1cc(C)cc(SCC(O)CN(Cc2ccccc2)Cc2ccccc2)c1 (stereo unspecified) | 38% |
| OC(CSc1ccccc1Cl)CN1CCC(C(O)(c2ccccc2)c2ccccc2)CC1 (stereo unspecified) | 5% |
| OC(CSc1nnnn1-c1ccccc1)Cn1c2c(c3ccccc31)CCC2 (stereo unspecified) | 87% |

###

tgt: Beta-secretase 1 (Homo sapiens)
protocol: Inhibition of BACE1 at 100 uM by FRET assay
Lab note: anything with inhibition at or over 30% counts as label 1; the rest go in label 0.

| compound | tgt | label |
| --- | --- | --- |
| Oc1ccccc1SCC(O)Cn1c(-c2ccccc2)cc2ccccc21 (stereo not drawn) | Beta-secretase 1 (Homo sapiens) | label 1 |
| CCc1cccc2ccn(CC(O)CSc3ccccc3O)c12 (stereo not drawn) | Beta-secretase 1 (Homo sapiens) | label 1 |
| COc1ccc(SCC(O)Cn2c3c(c4ccccc42)CCC3)c(OC)c1 (stereo not drawn) | Beta-secretase 1 (Homo sapiens) | label 1 |
| Cc1ccc(SCC(O)Cn2c(-c3ccccc3)cc3ccccc32)cc1 (stereo not drawn) | Beta-secretase 1 (Homo sapiens) | label 1 |
| OC(CSc1ccc(Cl)cc1)Cn1c(-c2ccccc2)cc2ccccc21 (stereo not drawn) | Beta-secretase 1 (Homo sapiens) | label 1 |
| Cc1cc(C)cc(SCC(O)CN2CCCCCC2)c1 (stereo not drawn) | Beta-secretase 1 (Homo sapiens) | label 0 |
| CCc1ccc(SCC(O)Cn2c(-c3ccccc3)cc3ccccc32)cc1 (stereo not drawn) | Beta-secretase 1 (Homo sapiens) | label 1 |
| COc1ccc(SCC(O)CN2CCC(C(O)(c3ccccc3)c3ccccc3)CC2)cc1 (stereo not drawn) | Beta-secretase 1 (Homo sapiens) | label 0 |
| OC(CSc1ccc(F)cc1)Cn1c2c(c3ccccc31)CCCC2 (stereo not drawn) | Beta-secretase 1 (Homo sapiens) | label 1 |
| OC(CSCCCc1ccccc1)Cn1c2c(c3ccccc31)CCC2 (stereo not drawn) | Beta-secretase 1 (Homo sapiens) | label 1 |
| OC(COc1ccc(Cc2ccccc2)cc1)CSc1ccccc1F (stereo not drawn) | Beta-secretase 1 (Homo sapiens) | label 1 |
| OC(CSc1ccc(Cl)cc1)CN(Cc1ccccc1)Cc1ccccc1 (stereo not drawn) | Beta-secretase 1 (Homo sapiens) | label 0 |
| OC(CSc1nnnn1-c1ccccc1)Cn1ccc2ccccc21 (stereo not drawn) | Beta-secretase 1 (Homo sapiens) | label 1 |
| COc1ccc(SCC(O)CN2CCc3cc(OC)c(OC)cc3C2c2ccccc2)c(OC)c1 (stereo not drawn) | Beta-secretase 1 (Homo sapiens) | label 0 |
| Oc1ccccc1SCC(O)CN(Cc1ccccc1)Cc1ccccc1 (stereo not drawn) | Beta-secretase 1 (Homo sapiens) | label 0 |
| Oc1ccc(SCC(O)COc2ccc(Cc3ccccc3)cc2)cc1 (stereo not drawn) | Beta-secretase 1 (Homo sapiens) | label 1 |
| COc1ccc(SCC(O)COc2ccc(-c3ccccc3)cc2)c(OC)c1 (stereo not drawn) | Beta-secretase 1 (Homo sapiens) | label 1 |
| Cc1c(C)n(CC(O)CSc2cccc(N)c2)c2ccccc12 (stereo not drawn) | Beta-secretase 1 (Homo sapiens) | label 1 |
| OC(CSCCCc1ccccc1)CN(Cc1ccccc1)Cc1ccccc1 (stereo not drawn) | Beta-secretase 1 (Homo sapiens) | label 0 |
| Oc1ccc(SCC(O)Cn2c(-c3ccccc3)cc3ccccc32)cc1 (stereo not drawn) | Beta-secretase 1 (Homo sapiens) | label 1 |
| COc1cc2c(cc1OC)C(c1ccccc1)N(CC(O)CSc1cc(C)cc(C)c1)CC2 (stereo not drawn) | Beta-secretase 1 (Homo sapiens) | label 0 |
| Cc1ccccc1SCC(O)Cn1c2c(c3ccccc31)CCC2 (stereo not drawn) | Beta-secretase 1 (Homo sapiens) | label 1 |
| OC(CSc1nnnn1-c1ccccc1)CN1CCCCCC1 (stereo not drawn) | Beta-secretase 1 (Homo sapiens) | label 0 |
| COc1ccc(SCC(O)COc2ccc(-c3ccccc3)cc2)cc1 (stereo not drawn) | Beta-secretase 1 (Homo sapiens) | label 1 |
| OC(CSc1nnnn1-c1ccccc1)Cn1c(-c2ccccc2)cc2ccccc21 (stereo not drawn) | Beta-secretase 1 (Homo sapiens) | label 1 |
| COc1ccc(SCC(O)Cn2c(C)c(C)c3ccccc32)cc1 (stereo not drawn) | Beta-secretase 1 (Homo sapiens) | label 1 |
| COc1cc2c(cc1OC)C(c1ccccc1)N(CC(O)CSc1ccc(Cl)cc1)CC2 (stereo not drawn) | Beta-secretase 1 (Homo sapiens) | label 0 |
| OC(CSc1ccccc1F)CN1CCC(C(O)(c2ccccc2)c2ccccc2)CC1 (stereo not drawn) | Beta-secretase 1 (Homo sapiens) | label 0 |
| OC(CSc1ccccc1F)CN(Cc1ccccc1)Cc1ccccc1 (stereo not drawn) | Beta-secretase 1 (Homo sapiens) | label 0 |
| OC(CSc1ccc(Cl)cc1)CN1CCC(C(O)(c2ccccc2)c2ccccc2)CC1 (stereo not drawn) | Beta-secretase 1 (Homo sapiens) | label 0 |
| COc1ccc(SCC(O)CN(Cc2ccccc2)Cc2ccccc2)c(OC)c1 (stereo not drawn) | Beta-secretase 1 (Homo sapiens) | label 1 |
| OC(CSc1ccccc1F)Cn1c2c(c3ccccc31)CCC2 (stereo not drawn) | Beta-secretase 1 (Homo sapiens) | label 1 |
| COc1ccc(SCC(O)COc2ccc(Cc3ccccc3)cc2)c(OC)c1 (stereo not drawn) | Beta-secretase 1 (Homo sapiens) | label 1 |
